# System tested: HLA-B*5401 (human)
# Test protocol: competition vs 125I-labeled standard peptide, purified HLA
Measure: log10 IC50 (log10 of the value in nM)

Binder: FPKANKEIL (9-mer analog of the HER2/neu peptide starting at position 760; same label as the 8-mer in r52) [Her2/neu.760.F1, 9-mer]
log10 IC50: 1.89

Binder: FPYVSRLL (8-mer analog of the HER2/neu peptide starting at position 779; same label as the 10-mer in r56) [Her2/neu.779.F1, 8-mer]
log10 IC50: 2.24

Binder: MPNQAQMRILI (11-mer analog of the HER2/neu peptide starting at position 706) [Her2/neu.706.I11]
log10 IC50: 2.48

Binder: FPSGAMPNQI (the label names only F1 though the C-terminus is I) [Her2/neu.701.F1]
log10 IC50: 2.00

Binder: FPYVSRLLGI (10-mer analog of the HER2/neu peptide starting at position 779; same label as the 8-mer in r55) [Her2/neu.779.F1, 10-mer]
log10 IC50: 0.96

Binder: FPKANKEI (8-mer analog of the HER2/neu peptide starting at position 760; same label as the 9-mer in r54) [Her2/neu.760.F1, 8-mer]
log10 IC50: 3.49

Binder: MPYGCLLDHVI (11-mer analog of the HER2/neu peptide starting at position 801) [Her2/neu.801.I11]
log10 IC50: 0.89

Binder: FPLTSIISAVI (11-mer analog of the HER2/neu peptide starting at position 649) [Her2/neu.649.F1I11]
log10 IC50: 0.34
